Biological target: Cytochrome P450 1A2 (Rattus norvegicus)
Sequence (P04799 whole entry): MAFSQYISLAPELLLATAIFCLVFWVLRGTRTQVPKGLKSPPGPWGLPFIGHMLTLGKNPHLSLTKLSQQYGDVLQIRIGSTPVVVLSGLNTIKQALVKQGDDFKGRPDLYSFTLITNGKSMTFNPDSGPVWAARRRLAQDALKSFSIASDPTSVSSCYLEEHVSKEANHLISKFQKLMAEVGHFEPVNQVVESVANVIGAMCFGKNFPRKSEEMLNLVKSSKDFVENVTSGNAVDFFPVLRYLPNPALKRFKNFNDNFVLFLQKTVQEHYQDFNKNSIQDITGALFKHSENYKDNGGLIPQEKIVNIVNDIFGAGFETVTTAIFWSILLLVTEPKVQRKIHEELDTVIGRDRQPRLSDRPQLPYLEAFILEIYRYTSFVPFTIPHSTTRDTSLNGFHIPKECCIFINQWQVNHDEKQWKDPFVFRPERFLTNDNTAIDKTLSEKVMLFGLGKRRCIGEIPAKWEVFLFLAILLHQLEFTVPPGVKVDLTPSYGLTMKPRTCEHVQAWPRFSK
measurement.kind: Ki (µM)
Give your result in µM as a bare value.

# get_value(readout= Ki, system= Cytochrome P450 1A2 (Rattus norvegicus)) for `CCCCCCCCCCCCCCC(=O)Nc1ccn([C@@H]2O[C@H](CO)[C@@H](O)C2(F)F)c(=O)n1`
127

====

Target: Cytochrome P450 2D1 (Rattus norvegicus, UniProt P10633)
Sequence (P10633 whole entry): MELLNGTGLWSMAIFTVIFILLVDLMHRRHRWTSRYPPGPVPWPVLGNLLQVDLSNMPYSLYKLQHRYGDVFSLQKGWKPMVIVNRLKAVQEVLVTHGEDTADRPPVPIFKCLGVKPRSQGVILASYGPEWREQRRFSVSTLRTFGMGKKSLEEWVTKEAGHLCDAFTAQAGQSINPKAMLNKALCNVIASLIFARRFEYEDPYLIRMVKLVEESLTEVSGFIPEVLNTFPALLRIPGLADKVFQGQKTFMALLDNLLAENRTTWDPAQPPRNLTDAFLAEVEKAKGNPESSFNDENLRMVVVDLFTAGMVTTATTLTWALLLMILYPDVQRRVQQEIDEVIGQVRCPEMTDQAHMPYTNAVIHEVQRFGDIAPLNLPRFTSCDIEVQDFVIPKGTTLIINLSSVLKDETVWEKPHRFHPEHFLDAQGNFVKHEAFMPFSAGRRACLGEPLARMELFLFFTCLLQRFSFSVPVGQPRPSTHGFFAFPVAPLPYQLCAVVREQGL
Test: Inhibition of CYP2D1 in rat liver microsomes using dextromethorphan as substrate
Assay type: ADME, Microsome
measurement.kind: pKi
pKi field: float, defined as -log10 of concentration (mol/L).

Find the recorded pKi belonging to `CCCCCCCCCCCCCCC(=O)Nc1ccn([C@@H]2O[C@H](CO)[C@@H](O)C2(F)F)c(=O)n1` and report it.
3.75

====

Test system: HeLa
Assay: Antiproliferative activity against human HeLa cells assessed as inhibition of cell growth
Assay type: functional, cell-based
measurement.kind: IC50 (nM)
Give your result in nM as a bare value.

structure.smiles | IC50, nM
Nc1ccn([C@@H]2O[C@H](CO)[C@@H](O)C2(F)F)c(=O)n1 | 1990

Lab note: next molecule to report on.
Find the recorded IC50 belonging to `CCCCCCCCCCCCCCC(=O)Nc1ccn([C@@H]2O[C@H](CO)[C@@H](O)C2(F)F)c(=O)n1` and report it.
430
